# Method notes: Drug library screen, cell viability (CellTiter-Glo)
# Type: cell-based, human
# Setup conditions: human; HCT116 ARID1A-WT; 10 μM for 5 days; relative to cells treated with solvent (DMSO); read-out: Cell viability, WT
Peptide text beside a SMILES is read from it. * marks the point of attachment. Cbz = O=C(OCc1ccccc1)*
Quick rule for you: viability under 70% gets Fulfilled, anything else gets Not fulfilled.

C=C(C)[C@H]1Cc2c(ccc3c2O[C@@H]2COc4cc(OC)c(OC)cc4[C@@H]2C3=O)O1 :: Fulfilled
CN(N=O)c1cc(O)ccc1O :: Not fulfilled
C[C@H]1O[C@@H](n2cnc3c(N)ncnc32)C[C@@H]1O :: Not fulfilled
CC(C)C[C@@H](C=O)NC(=O)[C@H](CC(C)C)NC(=O)[C@H](CC(C)C)NC(=O)OCc1ccccc1 [MG-132] (Cbz-Leu-Leu-Leu-aldehyde) :: Fulfilled
CC1=C2C(=O)[C@H]3[C@@H](CC=C4C[C@@H](O)CC[C@@]43C)[C@@H]2CC[C@]12O[C@@H]1C[C@H](C)CN[C@H]1[C@H]2C :: Not fulfilled

Turning now to a further compound:
## Task Take the compound C[C@@H]1C[C@@H]([C@H](O)CC2CC(=O)NC(=O)C2)C(=O)[C@@H](C)C1 [Cycloheximide] and say whether its viability is less than 70%.
## Result Fulfilled
